Where these numbers come from: PubChem BioAssay AID1963860

For each record, write down the corresponding pIC50.
test system: CN0375-F725-PDC KRAS spheroid viability; experiment: Anticancer human tumor CN0375-F725-PDC patient-derived colon carcinoma cell line growth inhibition [KRAS2]; details: curve of first compound; second compound 1 µM; spheroids with HUVEC and MSC;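 further: spheroids exposed to agents for 7 days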
pIC50: −log10 of the molar value.

query: Fill in: pIC50 of CC1COCCN1c1cc(-c2ccnn2C)c2ccnc(-c3ccn[nH]3)c2n1 (stereo unspecified) + C=CC(=O)N1CCN(c2nc(OCC3CCCN3C)nc3c2CCN(c2cccc4cccc(C)c24)C3)CC1CC#N is ___
result: < 5.50

query: And then CCNC(=O)CC1N=C(c2ccc(Cl)cc2)c2cc(OC)ccc2-n2c(C)nnc21 (stereo unspecified) + C=CC(=O)N1CCN(c2nc(=O)n(-c3c(C)ccnc3C(C)C)c3nc(-c4c(O)cccc4F)c(F)cc23)C(C)C1 , what is it?
result: < 5.00

query: And then CC1COCCN1c1cc(-c2ccnn2C)c2ccnc(-c3ccn[nH]3)c2n1 (stereo unspecified) + C=CC(=O)N1CCN(c2nc(=O)n(-c3c(C)ccnc3C(C)C)c3nc(-c4c(O)cccc4F)c(F)cc23)C(C)C1 , what is it?
result: < 5.50

query: And then O=C(c1cc(Cc2n[nH]c(=O)c3ccccc23)ccc1F)N1CCN(C(=O)C2CC2)CC1 + COc1cc2nc(C)nc(NC(C)c3cc(N)cc(C(F)(F)F)c3)c2cc1OC1CCOC1 , what is it?
result: < 5.00

query: And then CC(C)NCC(C(=O)N1CCN(c2ncnc3c2C(C)CC3O)CC1)c1ccc(Cl)cc1 (stereo unspecified) + COc1cc2nc(C)nc(NC(C)c3cc(N)cc(C(F)(F)F)c3)c2cc1OC1CCOC1 , what is it?
result: < 5.00

query: And then CN(C)C/C=C/C(=O)Nc1cc2c(Nc3ccc(F)c(Cl)c3)ncnc2cc1O[C@H]1CCOC1 + CC1OCC2(CCN(c3cnc(Sc4ccnc(N)c4Cl)c(N)n3)CC2)C1N , what is it?
result: < 7.00

query: And then CN(C)C/C=C/C(=O)Nc1cc2c(Nc3ccc(F)c(Cl)c3)ncnc2cc1O[C@H]1CCOC1 + COc1cc2nc(C)nc(NC(C)c3cc(N)cc(C(F)(F)F)c3)c2cc1OC1CCOC1 , what is it?
result: < 7.00

query: And then COc1cc(Nc2ncc3c(n2)-c2ccc(Cl)cc2C(c2c(F)cccc2OC)=NC3)ccc1C(=O)O + CC1OCC2(CCN(c3cnc(Sc4ccnc(N)c4Cl)c(N)n3)CC2)C1N , what is it?
result: < 5.00

query: And then CC1OCC2(CCN(c3cnc(Sc4ccnc(N)c4Cl)c(N)n3)CC2)C1N (stereo unspecified) + C=CC(=O)N1CCN(c2nc(=O)n(-c3c(C)ccnc3C(C)C)c3nc(-c4c(O)cccc4F)c(F)cc23)C(C)C1 , what is it?
result: < 5.00

query: And then CN(C)C/C=C/C(=O)Nc1cc2c(Nc3ccc(F)c(Cl)c3)ncnc2cc1O[C@H]1CCOC1 + C=CC(=O)N1CCN(c2nc(OCC3CCCN3C)nc3c2CCN(c2cccc4cccc(C)c24)C3)CC1CC#N , what is it?
result: < 7.00

query: And then CN(C)C/C=C/C(=O)Nc1cc2c(Nc3ccc(F)c(Cl)c3)ncnc2cc1O[C@H]1CCOC1 + C=CC(=O)N1CCN(c2nc(=O)n(-c3c(C)ccnc3C(C)C)c3nc(-c4c(O)cccc4F)c(F)cc23)C(C)C1 , what is it?
result: < 7.00
